- SYSTEM: Rap guanine nucleotide exchange factor 3 (Homo sapiens)
- PROTOCOL NOTES: Counterscreen qHTS for agonist of cAMP-regulated guanine nucleotide exchange factor 3 (EPAC1) (AID 1645889); further: % of control where 0% means no effect; nearly all actives have a fitted effect of over 40% in size
- DETAILS: EPAC1 Rap1B-BODIPY-GDP exchange, fluorescence; series mostly up to 154 µM
Inconclusive results are not listed. Calls of active or inactive are those of the source. The call rests on the fitted dose curve; in most records, active means well fitted activation curve with a large enough effect; inconclusive means small, poorly fitted or top-dose-only effect, or another doubt; inactive means no such curve, though single readings can be large or run the other way.
OUTCOME MEASURE: activation

# count of solved cases: 4
{"columns": ["COMPOUND", "SYSTEM", "activation"],
 "data": [
  ["COc1cc(Cl)c(C)cc1NC(=O)c1ccc(CN2C(=O)CCn3nc(C)cc32)cc1", "Rap guanine nucleotide exchange factor 3 (Homo sapiens)", "inactive"],
  ["O=C(O)CN1C(=O)/C(=C\\c2ccccc2OCc2ccc(Cl)cc2Cl)SC1=S", "Rap guanine nucleotide exchange factor 3 (Homo sapiens)", "3.68% [at 30.8 µM] (inactive)"],
  ["CC1CC(C)CN(C(=O)c2cccc(S(=O)(=O)Nc3cc(C(F)(F)F)ccc3Cl)c2)C1 (stereo not given)", "Rap guanine nucleotide exchange factor 3 (Homo sapiens)", "inactive"],
  ["Cc1ccc(S(=O)(=O)N2[C@@H](c3ccc(Cl)cc3)C(C(=O)O)=CC[C@H]2c2ccc(C(C)C)cc2)cc1", "Rap guanine nucleotide exchange factor 3 (Homo sapiens)", "inactive"]
]}

Now for a further compound.
stdin: Which activation is listed for COc1ccc(C=NNc2ccc([N+](=O)[O-])cc2S(=O)(=O)Nc2ccccc2C(=O)O)cc1OC ?
stdout: 21.9% [at 30.8 µM] (inactive)
